# target-or-test-system: PKR(wt) (Homo sapiens, UniProt P30613)
# Sequence (P30613 whole entry): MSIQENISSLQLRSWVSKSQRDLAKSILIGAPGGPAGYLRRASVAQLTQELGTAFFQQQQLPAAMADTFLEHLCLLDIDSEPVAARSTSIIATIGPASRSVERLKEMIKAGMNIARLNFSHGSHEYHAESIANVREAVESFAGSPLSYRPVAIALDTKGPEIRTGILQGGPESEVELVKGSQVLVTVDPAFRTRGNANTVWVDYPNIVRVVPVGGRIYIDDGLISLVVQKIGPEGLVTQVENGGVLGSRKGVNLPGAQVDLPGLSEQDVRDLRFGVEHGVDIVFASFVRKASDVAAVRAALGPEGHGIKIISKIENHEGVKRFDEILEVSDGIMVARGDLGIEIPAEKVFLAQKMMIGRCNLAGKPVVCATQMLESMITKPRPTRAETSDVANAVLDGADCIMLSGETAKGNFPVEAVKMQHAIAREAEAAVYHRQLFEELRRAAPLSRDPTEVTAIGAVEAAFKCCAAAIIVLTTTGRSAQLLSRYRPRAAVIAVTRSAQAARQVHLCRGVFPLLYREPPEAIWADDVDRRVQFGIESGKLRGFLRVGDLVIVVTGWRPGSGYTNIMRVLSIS
# method-description: Luminescence Assay Protocol (Kinase Glo Plus), PKR(Wt/without FBP)
# Type: biochemical
# assay-setup: without FBP, compound 1.54 μM, read-out: I - AC50 LUM KGP woFBP % Fold @ 1.54 μM mean
readout-label: activation at 1.54 µM

PKR(wt) (Homo sapiens, UniProt P30613) / activation at 1.54 µM / CC(C)(CO)C(=O)N1CC2=C(C1)CN(S(=O)(=O)c1ccc3ncsc3c1)C2 : value?
75 to 250%

State its activation at 1.54 µM on PKR(wt) (Homo sapiens, UniProt P30613): O=C(C(CO)c1ccccn1)N1CC2=C(C1)CN(S(=O)(=O)c1ccc(OC(F)F)cc1)C2 (single isomer, unassigned)
250 to 500%

API: value(readout=activation at 1.54 µM, system=PKR(wt) (Homo sapiens, UniProt P30613)) for record O=C([C@@H](CO)c1ccccc1)N1CC2=C(C1)CN(S(=O)(=O)c1ccc3ncsc3c1)C2
250 to 500%

Recall the recorded activation at 1.54 µM for O=C([C@@H]1CCOC1)N1CC2=C(C1)CN(S(=O)(=O)c1ccc(OC(F)F)cc1)C2 with PKR(wt) (Homo sapiens, UniProt P30613) and state it.
250 to 500%

Short answer please: activation at 1.54 µM, PKR(wt) (Homo sapiens, UniProt P30613), entry O=C([C@H](CO)c1ccccc1)N1CC2=C(C1)CN(S(=O)(=O)c1ccccn1)C2
250 to 500%

Fill in the recorded activation at 1.54 µM for this compound, with PKR(wt) (Homo sapiens, UniProt P30613) as test system: COCCC(=O)N1CC2=C(C1)CN(S(=O)(=O)c1ccc3c(c1)N(C)CCO3)C2
75 to 250%

Field: activation at 1.54 µM (PKR(wt) (Homo sapiens, UniProt P30613)). Entry: O=C(C1CCOC1)N1CC2=C(C1)CN(S(=O)(=O)c1ccc3c(c1)NCCO3)C2 (stereo not shown)
250 to 500%

Request body: readout activation at 1.54 µM, system PKR(wt) (Homo sapiens, UniProt P30613), query COCC1(C(=O)N2CC3=C(C2)CN(S(=O)(=O)c2ccc4occc4c2)C3)CC1 . Return the value.
75 to 250%

Please tell me: activation at 1.54 µM of O=C(C(CO)c1ccccc1)N1CC2=C(C1)CN(S(=O)(=O)c1ccc3ncsc3c1)C2 (stereo not shown) , system PKR(wt) (Homo sapiens, UniProt P30613)?
250 to 500%

Any idea what activation at 1.54 µM came out for O=C([C@H](CO)c1ccccc1)N1CC2=C(C1)CN(S(=O)(=O)c1cccnc1)C2 on PKR(wt) (Homo sapiens, UniProt P30613)?
75 to 250%

Kindly state the measured activation at 1.54 µM obtained for O=C(C(CO)c1ccccc1)N1CC2=C(C1)CN(S(=O)(=O)c1ccc(OC(F)F)cc1)C2 (stereo not shown) with PKR(wt) (Homo sapiens, UniProt P30613).
250 to 500%

Request body: readout activation at 1.54 µM, system PKR(wt) (Homo sapiens, UniProt P30613), query O=C([C@H]1CCOC1)N1CC2=C(C1)CN(S(=O)(=O)c1ccc(OC(F)F)cc1)C2 . Return the value.
75 to 250%

Which measured activation at 1.54 µM belongs to CC(C)(CO)C(=O)N1CC2=C(C1)CN(S(=O)(=O)c1ccc3c(c1)NCCO3)C2 , tested on PKR(wt) (Homo sapiens, UniProt P30613)?
75 to 250%

Request: activation at 1.54 µM, test system PKR(wt) (Homo sapiens, UniProt P30613), entry COCC1(C(=O)N2CC3=C(C2)CN(S(=O)(=O)c2ccc4c(c2)NCCO4)C3)CC1
75 to 250%

Query activation at 1.54 µM on PKR(wt) (Homo sapiens, UniProt P30613) for O=C(C1CCCOC1)N1CC2=C(C1)CN(S(=O)(=O)c1ccc3c(c1)NCCO3)C2 (single isomer, unassigned)
75 to 250%

Record lookup: for PKR(wt) (Homo sapiens, UniProt P30613), what activation at 1.54 µM belongs to O=C(CCO)N1CC2=C(C1)CN(S(=O)(=O)c1ccc(OC(F)F)cc1)C2 ?
75 to 250%

API: value(readout=activation at 1.54 µM, system=PKR(wt) (Homo sapiens, UniProt P30613)) for record C[C@@H](O)CC(=O)N1CC2=C(C1)CN(S(=O)(=O)c1ccc3occc3c1)C2
250 to 500%

Requested read-out activation at 1.54 µM, target or system PKR(wt) (Homo sapiens, UniProt P30613), entry O=C(C1CCCOC1)N1CC2=C(C1)CN(S(=O)(=O)c1ccc3ncsc3c1)C2 (stereo not shown)
75 to 250%

Please state recorded activation at 1.54 µM (tested on PKR(wt) (Homo sapiens, UniProt P30613)) of O=C(C1CCCOC1)N1CC2=C(C1)CN(S(=O)(=O)c1ccccn1)C2 (single isomer, unassigned)
75 to 250%

====

Exercise: state measured AC50 for each of the compounds provided.
# target-or-test-system: UniProt P30613
# method-description: Luminescence Assay Protocol (Kinase Glo Plus), PKR(Wt/without FBP)
# Assay type: biochemical
# assay-setup: without FBP, gmean, read-out: G - AC50 LUM KGP woFBP AC50 μM gmean
# Procedure: Example 47: PKR(Wt/without FBP), PKR(G332S/with FBP), PKR(R510Q/without FBP) The phosphorylation of Adenosine-5′-diphosphate (ADP) by various mutants of PKR was determined by the Kinase Glo Plus Assay (Promega) in the presence or absence of FBP [D-Fructose-1,6-diphosphate; BOC Sciences, CAS: 81028-91-3] as follows. […] Enzyme and PEP [Phospho(enol) pyruvic acid] were added at 2× to all wells of an assay-ready plate containing serial dilutions of test compounds or DMSO vehicle. […]

# query: AC50 of entry O=C(C1CCCOC1)N1CC2=C(C1)CN(S(=O)(=O)c1ccc3c(c1)NCCO3)C2 (single isomer, unassigned) [Example 33]
1 to 40 µM

I have this compound here, CCC(CO)(CO)C(=O)N1CC2=C(C1)CN(S(=O)(=O)c1ccc3occc3c1)C2 , and I need its recorded AC50.
0.1 to 1 µM

For the compound O=C([C@H](CO)c1ccccc1)N1CC2=C(C1)CN(S(=O)(=O)c1ccccn1)C2 , what AC50 is on record?
≤ 0.1 µM

Param item = O=C([C@H]1CCOC1)N1CC2=C(C1)CN(S(=O)(=O)c1ccc3occc3c1)C2 ; retrieve measured AC50.
0.1 to 1 µM

Fill in: AC50 of O=C([C@H](CO)c1ccccc1)N1CC2=C(C1)CN(S(=O)(=O)c1ccc(OC(F)F)cc1)C2 is ___
≤ 0.1 µM

====

# target-or-test-system: PKR(R510Q) (Homo sapiens, UniProt P30613, R510Q)
# Sequence (P30613 whole entry R510Q): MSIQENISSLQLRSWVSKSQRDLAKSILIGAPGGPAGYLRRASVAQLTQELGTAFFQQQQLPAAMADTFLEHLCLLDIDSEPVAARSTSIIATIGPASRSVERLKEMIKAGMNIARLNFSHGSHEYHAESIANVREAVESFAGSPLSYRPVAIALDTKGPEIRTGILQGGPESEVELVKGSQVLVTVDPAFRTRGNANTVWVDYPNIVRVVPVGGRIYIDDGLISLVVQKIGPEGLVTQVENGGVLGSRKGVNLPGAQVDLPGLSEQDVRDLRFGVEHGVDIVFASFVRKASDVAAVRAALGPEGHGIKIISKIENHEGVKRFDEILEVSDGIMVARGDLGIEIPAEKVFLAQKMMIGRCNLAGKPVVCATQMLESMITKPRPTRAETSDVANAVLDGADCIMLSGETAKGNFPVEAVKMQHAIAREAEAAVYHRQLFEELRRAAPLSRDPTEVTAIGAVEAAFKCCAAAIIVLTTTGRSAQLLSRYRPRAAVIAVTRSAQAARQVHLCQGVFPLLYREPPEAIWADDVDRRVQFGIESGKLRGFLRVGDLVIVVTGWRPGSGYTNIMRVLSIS
# method-description: Luminescence Assay Protocol (Kinase Glo Plus), PKR(R510Q/without FBP)
# Type: biochemical
# assay-setup: PKRR510Q, without FBP, highest % fold increase at any concentration; read-out: E - AC50 LUM KGP woFBP MAX % FOLD mean
readout-label: Emax

Need Emax of CN1CCOc2ccc(S(=O)(=O)N3CC4=C(CN(C(=O)C5CCOC5)C4)C3)cc21 (stereo not shown) , thanks.
250 to 500%

Data request, read-out Emax, for COCC1(C(=O)N2CC3=C(C2)CN(S(=O)(=O)c2ccc4c(c2)NCCO4)C3)CC1
75 to 250%

Would you mind telling me what Emax value was observed for O=C(C1CCOC1)N1CC2=C(C1)CN(S(=O)(=O)c1ccc3c(c1)NCCO3)C2 (stereo not shown) ?
250 to 500%

Quick one: Emax for O=C([C@H](CO)c1ccccc1)N1CC2=C(C1)CN(S(=O)(=O)c1cnc3c(c1)OCCO3)C2 (single isomer, unassigned) ?
250 to 500%

meta.source: patent US11649242B2
